conditions: 303.15 K; 101.33 kPa; Liquid
viscosity vs 0.6 mPa·s: at or above is MET, below is NOT MET.

# Compound, Discrete label
records = [
    ("CCOC(=O)c1ccccc1 [ethyl benzoate]", "MET"),
    ("CCOC=O [ethyl methanoate]", "NOT MET"),
    ("Cc1ccccc1C", "MET"),
    ("Cc1ccc(C)cc1", "NOT MET"),
    ("Cc1cccc(C)c1", "NOT MET"),
]

====

assay: refractive index (Na D-line) (dimensionless); conditions: 303.15 K; 101.33 kPa; Liquid

# Compound, refractive index
measured = [
    ("Cc1ccc(C)cc1 [1,4-dimethylbenzene]", 1.4911),
    ("Cc1ccccc1C [1,2-dimethylbenzene]", 1.5001),
    ("CCOC=O [ethyl methanoate]", 1.3552),
    ("CCc1ccccc1 [ethylbenzene]", 1.491),
    ("CCOC(=O)c1ccccc1 [ethyl benzoate]", 1.5009),
    ("Cc1cccc(C)c1 [1,3-dimethylbenzene]", 1.492),
]

====

settings: 313.15 K; 101.33 kPa; Liquid

# Compound, mass density (kg/m3)
data = [
    ("CCOC(=O)c1ccccc1 [ethyl benzoate]", 1028.5),
    ("CCOC=O [ethyl methanoate]", 894.9),
    ("Cc1ccccc1C", 863.3),
    ("Cc1ccc(C)cc1", 844),
    ("Cc1cccc(C)c1", 847.1),
    ("CCc1ccccc1", 849.2),
]

====

Listing of entries alongside the reported refractive index.
assay: refractive index (Na D-line) (dimensionless); conditions: 313.15 K; 101.33 kPa; Liquid

# Compound, refractive index
measured = [
    ("CCOC=O [ethyl methanoate]", 1.3549),
    ("Cc1ccccc1C", 1.4981),
    ("Cc1ccc(C)cc1", 1.4902),
    ("CCOC(=O)c1ccccc1 [ethyl benzoate]", 1.4997),
    ("CCc1ccccc1", 1.4891),
    ("Cc1cccc(C)c1", 1.4901),
]

====

conditions: 303.15 K; 101.33 kPa; Liquid
mass density vs 900 kg/m3: at or above is Satisfied, below is Not satisfied.

# Compound, Discrete label
measured = [
    ("Cc1ccc(C)cc1 [1,4-dimethylbenzene]", "Not satisfied"),
    ("CCc1ccccc1 [ethylbenzene]", "Not satisfied"),
    ("Cc1ccccc1C [1,2-dimethylbenzene]", "Not satisfied"),
    ("CCOC(=O)c1ccccc1 [ethyl benzoate]", "Satisfied"),
    ("Cc1cccc(C)c1 [1,3-dimethylbenzene]", "Not satisfied"),
]

====

settings: 313.15 K; 101.33 kPa; Liquid
Returns: string. Value is condition met if measured viscosity is below 0.5 mPa·s, and condition not met if it is greater than or equal to it.

# Compound, Discrete label
measured = [
    ("CCOC=O [ethyl methanoate]", "condition met"),
    ("CCOC(=O)c1ccccc1 [ethyl benzoate]", "condition not met"),
    ("Cc1ccccc1C", "condition not met"),
    ("CCc1ccccc1", "condition not met"),
    ("Cc1ccc(C)cc1", "condition not met"),
]
